# tested.on: T1, 4H717-AA
# T1 chain: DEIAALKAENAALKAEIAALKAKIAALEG
# experimental.details: two-hybrid library CCmax;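 further: natural log of median RNA to DNA barcode read ratio; higher means stronger binding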
# test.conditions: mean of both orientations
interaction score for assorted binders
I'd appreciate a reply containing only the number, no unit.

Sample answers from the record:
[[record]]
binder = "DKIAALKAKIAALKAEIAALEAENAALEG [4H2883-AA]"
quantitative_readout = -1.74

[[record]]
binder = "DEIAALEAEIAALEAKIAALKAKNAALKG [4H48-AA]"
quantitative_readout = -1.37

[[record]]
binder = "DEIAALEAKIAALKAENAALEAKIAALKG [4H342-AA]"
quantitative_readout = -1.4

[[record]]
binder = "DENAALKAKIAALKAEIAALKAENAALEG [4H1867-AA]"
quantitative_readout = -1.28

[[record]]
binder = "DENAALEAEIAALKAKIAALKAKNAALEG [4H1135-AA]"
quantitative_readout = -1.4


Problem: Entry DKIAALKAENAALKAEIAALEAEIAALKG [4H2754-AA] : reported interaction score = ?
Result: 0.757

Problem: Entry DKIAALEAEIAALKAKNAALEAKIAALEG [4H2165-AA] : reported interaction score = ?
Result: -1.25

Problem: Entry DKIAALEAKIAALKAENAALKAEIAALEG [4H2393-AA] : reported interaction score = ?
Result: -1.55

Problem: Entry DEIAALKAENAALEAKIAALKAKNAALEG [4H687-AA] : reported interaction score = ?
Result: -0.487

Problem: Entry DEIAALEAKNAALEAKIAALKAKIAALEG [4H429-AA] : reported interaction score = ?
Result: -0.775

Problem: Entry DENAALEAENAALEAEIAALEAEIAALEG [4H1153-AA] : reported interaction score = ?
Result: -1.1

Problem: Entry DKIAALEAEIAALEAENAALKAKIAALKG [4H2078-AA] : reported interaction score = ?
Result: -1.62

Problem: Entry DENAALKAEIAALKAKIAALEAENAALKG [4H1636-AA] : reported interaction score = ?
Result: -0.951

Problem: Entry DKIAALEAENAALEAEIAALKAKIAALKG [4H2190-AA] : reported interaction score = ?
Result: 1.16
